tested_system: HIV-1 Env of isolate DU156 (clade C pseudovirus) (HIV-1)
experiment: cell-based or functional assay
measured_attribute: IC50 (neutralization, TZM-bl pseudovirus assay)

stdin: Look up IC50 (neutralization, TZM-bl pseudovirus assay) for this binder: 1503_H05 (PG16) (TCN-119) (antibody, V domains shown) VH: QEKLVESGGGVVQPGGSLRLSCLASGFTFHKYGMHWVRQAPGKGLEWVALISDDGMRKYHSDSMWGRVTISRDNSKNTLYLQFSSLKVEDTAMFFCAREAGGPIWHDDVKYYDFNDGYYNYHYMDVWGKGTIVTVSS VL: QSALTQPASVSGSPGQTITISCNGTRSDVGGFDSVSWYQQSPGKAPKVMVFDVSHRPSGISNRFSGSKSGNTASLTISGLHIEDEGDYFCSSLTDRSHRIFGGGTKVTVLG
stdout: < 0.01 µg/mL
